These measurements were taken from patent US12486260B2.

What pIC50 was measured for each of the following?
Molecular target: c-Kit(V654A) (Homo sapiens, UniProt P10721, V654A)
Construct: amino acids 544-end; GST (N)
Sequence (P10721 544-976 V654A): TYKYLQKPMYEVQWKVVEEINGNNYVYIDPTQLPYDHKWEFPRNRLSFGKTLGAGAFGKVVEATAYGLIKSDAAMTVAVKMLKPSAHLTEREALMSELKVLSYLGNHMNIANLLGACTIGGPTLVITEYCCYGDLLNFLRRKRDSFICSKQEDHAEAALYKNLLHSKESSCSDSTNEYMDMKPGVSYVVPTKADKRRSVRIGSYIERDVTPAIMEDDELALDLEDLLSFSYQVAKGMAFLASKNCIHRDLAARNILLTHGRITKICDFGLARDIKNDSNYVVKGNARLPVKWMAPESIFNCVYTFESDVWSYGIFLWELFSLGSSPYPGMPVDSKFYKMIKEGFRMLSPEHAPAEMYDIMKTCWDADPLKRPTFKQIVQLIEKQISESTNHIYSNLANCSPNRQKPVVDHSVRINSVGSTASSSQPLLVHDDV
Assay: c-Kit(V654A) kinase assay (33P-ATP filter binding)
Details: Table 2, isoxazole vs corresponding triazole derivatives; 200 μM ATP, 40 minutes; read-out: Inhibition (IC50) of c-Kit (V654A)
Just the number, please; pIC50 means minus log10 of the concentration in mol/L.

Problem: Give the reported pIC50 for this compound. "COCCOc1cc2[nH]nc(-c3cn(-c4ccc(C(=O)N5CC(N6CCOCC6)C5)cc4)nn3)c2cc1F"
Solution: 8.96

Problem: Give the reported pIC50 for this compound. "COCCOc1cc2[nH]nc(-c3cn(-c4ccc(C(=O)N5CC[C@@H]5C(C)(C)O)cc4)nn3)c2cc1F"
Solution: 8.29
